Protein target, amino acids: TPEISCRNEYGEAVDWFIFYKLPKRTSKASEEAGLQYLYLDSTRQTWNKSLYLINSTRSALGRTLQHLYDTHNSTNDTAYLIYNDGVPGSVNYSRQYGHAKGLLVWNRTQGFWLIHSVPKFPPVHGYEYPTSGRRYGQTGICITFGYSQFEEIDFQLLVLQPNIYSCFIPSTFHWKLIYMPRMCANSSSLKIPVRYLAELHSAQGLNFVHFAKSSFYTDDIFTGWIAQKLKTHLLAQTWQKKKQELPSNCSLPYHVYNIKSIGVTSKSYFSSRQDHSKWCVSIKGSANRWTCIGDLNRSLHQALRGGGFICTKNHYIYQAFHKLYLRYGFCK
Measured metric: IC50
A bare number is not enough; add the unit after it.

Reference set (3 entries):
### Prompt Entry under review: [Cl-].[Cl-].[Zn+2] [Zn^2+, ZnCl2] . Reported IC50?
### Response 0.2 mM

### Prompt Entry under review: [Cl-].[Cl-].[Mg+2] [MgCl2] . Reported IC50?
### Response 13 mM

### Prompt Entry under review: O=C(O)C1=CC(=C(c2ccc(O)c(C(=O)O)c2)c2ccc(O)c(C(=O)O)c2)C=CC1=O [Aurintricarboxylic acid] . Reported IC50?
### Response 0.006 mM

Note: attention shifts to another entry.
### Prompt Entry under review: O=S(=O)([O-])[O-].[Mg+2] [MgSO4] . Reported IC50?
### Response 7 mM

Just for reference, patent US7402310B2 is where these values come from.
